# Tested on: MS2 coat protein
# assay method text: apparent KD of MS2 coat protein; designed switch direction (-1 OFF switch, 1 ON switch): -1; higher = weaker reporter binding
# assay context: input ligand: none
Please respond with reported apparent KD of MS2 coat protein for every item in the list.
Give bare numbers, in nM.

CUCAUGUGAGGAUAUCACAUAGCGUCACGGCUGUAACAUUUUGAGAAGGCACAUGAGGAUCACCCAUGUGACAC [Eternabot (L2) Solution 79] (Eterna round: R97, puzzle: Exclusion 4); 46.6

I have 2 sequences here; please give me apparent KD of MS2 coat protein for each one.
1. UUGUCACAUGAGGAUCACCCAUGUGAGGAUAUGGCCCGCCCGGCGUGUGCUGGUUUUGUCAGAAGGCGCGUGGG [salish99_ex1_r4_028] (Eterna round: R97, puzzle: Exclusion 1)
2. UCCAGCAUACGGAGAUCCAACAUGAGGAUCACCCAUGUCUGGAAAGCUUUUUGCUUGUCUUAUCCUCCUCUGUGUGC [Design #6] (Eterna round: R97, puzzle: Sensor, turn-off variant 1)

1: 19.6; 2: 22.9

I have 3 sequences here; please give me apparent KD of MS2 coat protein for each one.
1. GACAUGAGGAUCACCCAUGUAACCUCAUGUAGGAAGGAGAGUAAGGAUAUACAUGAAGGAAUGAAGUAGAAGGUGCAUAGAGAG [Default title] (Eterna round: R96, puzzle: Exclusion NG 3)
2. UUAAAUCAUGUAGGAUAUGCGUGGCGAAGCUAUGCAGAAGGACAUGAGGAUCACCCAUGUUCUUGCGUCUGCGUACAGAUGCAA [JL ENG1 1.09] (Eterna round: R96, puzzle: Exclusion NG 1)
3. CUAAUUCGAGGAUAUGCAAUGGAGUCUUUAAUAUAGUUCUCACAUGAGGAUCACCCAUGUAGAAGGCGAGCGGG [Eternabot (L1) Solution 50] (Eterna round: R97, puzzle: Exclusion 2)

1. 586
2. 37.2
3. 53.1

I have 2 sequences here; please give me apparent KD of MS2 coat protein for each one.
1. CUAAUGUAUCAGGAUAUGAUUAUAUGUGUUGGAUCAGAAGGGAUAACAUGAGGAUCACCCAUGUUGUGGAGUGA [JR_Ex6_Sub036] (Eterna round: R97, puzzle: Exclusion 6)
2. ACAAGCUCUGUGGGUGGUGACAUGAGGAUCACCCAUGUUUUGCUCGUCUUGUGCCGGCCGGCCCGCGGCCGGCCGGC [-40.6, -69.5, A 12%] (Eterna round: R97, puzzle: Sensor, turn-off variant 1)

1. 234
2. 885

Recorded apparent KD of MS2 coat protein (sequence CGUGCGUAUGUGAGGAUAUGCUGGUCCUUGGAUCGGCAGAAGGCACAUGAGGAUCACCCAUGUGGUGUCGUUCC [salish99_Bmod_ex4_094] (Eterna round: R96, puzzle: Brourd's mod of Exclusion 4) ): 39.1
